targetSystem: recombinant human CCR3 (Homo sapiens, UniProt P51677)
Sequence (P51677 whole entry): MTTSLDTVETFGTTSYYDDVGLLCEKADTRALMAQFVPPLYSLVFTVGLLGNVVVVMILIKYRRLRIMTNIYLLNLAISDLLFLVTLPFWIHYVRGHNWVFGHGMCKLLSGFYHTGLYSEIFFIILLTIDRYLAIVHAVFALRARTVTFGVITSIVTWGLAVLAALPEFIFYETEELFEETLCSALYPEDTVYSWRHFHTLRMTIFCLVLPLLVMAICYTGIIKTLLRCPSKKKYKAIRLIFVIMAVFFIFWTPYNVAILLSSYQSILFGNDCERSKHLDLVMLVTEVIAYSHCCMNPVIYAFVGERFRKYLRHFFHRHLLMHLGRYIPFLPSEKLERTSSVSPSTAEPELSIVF
testMethodNotes: Compound affinity at human recombinant CCR3 receptors, radioligand competition on CHO-K1 cell membranes
conditions: competition with 2 nM [3H]-4-(2,4-dichloro-3-methylphenoxy)-1'-[4-(methylsulfonyl)benzoyl]-1,4'-bipiperidine, 2 h at 37° C., mean pKi by Cheng-Prussof correction of pIC50, minimum 2 experiments
Text: Determination of Compound Affinity at Human Recombinant CCR3 Receptors Assessed by Competition of [^3H]-4-(2,4-dichloro-3-methylphenoxy)-1′-[4-(methylsulfonyl)benzoyl]-1,4′-bipiperidine for CHO-K1 Cell Membranes In Vitro […]
readoutName: Ki (nM)
# value in nM; strip the unit string

Record summary for Cc1cc(Cl)ccc1OC1CCN(CC2CCN([C@@](C)(CC(C)C)C(=O)O)CC2)CC1 [Example 16A] : reported Ki = 0.631

###

Reported Ki values for the following compounds.
targetSystem: human H1 receptor (Homo sapiens)
Construct: purchased Euroscreen SA, Brussels, Belgium ES-390-M; host or cells: CHO-K1
Sequence (P35367 whole entry): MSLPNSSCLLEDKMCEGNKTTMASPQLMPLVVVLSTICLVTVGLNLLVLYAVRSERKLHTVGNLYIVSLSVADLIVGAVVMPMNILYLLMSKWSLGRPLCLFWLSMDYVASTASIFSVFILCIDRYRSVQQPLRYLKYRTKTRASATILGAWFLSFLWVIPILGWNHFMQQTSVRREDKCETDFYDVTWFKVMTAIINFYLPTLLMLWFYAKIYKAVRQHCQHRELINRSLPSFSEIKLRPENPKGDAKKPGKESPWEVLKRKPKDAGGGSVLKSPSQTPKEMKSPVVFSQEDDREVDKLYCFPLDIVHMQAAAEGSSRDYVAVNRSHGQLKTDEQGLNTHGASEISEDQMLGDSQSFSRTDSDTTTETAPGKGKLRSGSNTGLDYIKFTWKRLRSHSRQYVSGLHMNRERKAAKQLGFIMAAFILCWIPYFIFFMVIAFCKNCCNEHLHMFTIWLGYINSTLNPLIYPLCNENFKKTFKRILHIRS
testMethodNotes: Histamine H1 receptor binding, competition displacement of [3H]-pyrilamine
conditions: displacement of 1 nM [3H]-pyrilamine; membranes of recombinant CHO-K1 cells expressing human H1 receptor; 1 hour at room temperature; read-out: H1 pKi (converted)
Counter-ions that a name gives are not always drawn.
Your answer is read as nM, so omit the unit and give the number.

Study these solved cases before continuing.
{"columns": ["compound", "readoutName", "measureUnit", "recordedResult"],
 "data": [
  ["Cc1c(OC2CCN(CC3CCN([C@@H](CC4CCCCC4)C(=O)O)CC3)CC2)ccc(Cl)c1Cl", "Ki", "nM", 79.4],
  ["Cc1cc(Cl)ccc1OC1CCN(CC2CCN(C3(C(=O)O)CCCCC3)CC2)CC1 [Example 13A, dihydrochloride]", "Ki", "nM", 631],
  ["Cc1c(OC2CCN(CC3CCN([C@@H](CC4CC4)C(=O)O)CC3)CC2)ccc(Cl)c1Cl", "Ki", "nM", 200],
  ["O=C(O)C1(N2CCC(CN3CCC(Oc4ccc(Cl)c(Cl)c4)CC3)CC2)CCCCC1", "Ki", "nM", 501],
  ["Cc1c(OC2CCN(CC3CCN(C4(C(=O)O)CCCC4)CC3)CC2)ccc(Cl)c1Cl", "Ki", "nM", 316]
]}

Next up:
According to the records, this compound "O=C(O)[C@H](CC1CCCC1)N1CCC(CN2CCC(Oc3ccc(Cl)c(Cl)c3)CC2)CC1" displays Ki of 126
